Please go through the items and note down their diameter of the inhibition zone (DIZ).
System: Escherichia coli
Assay: Antibacterial activity against Escherichia coli B-906 at 0.1% after 24 hrs by agar disk diffusion technique
Assay type: functional
Numbers only, in mm.

[[record]]
smi = "CCCCOC(=O)CCSC1=C(SCCC(=O)OCCCC)C(=O)c2ccccc2C1=O"
unit_info = "mm"
data_value = 0


Would you mind giving diameter of the inhibition zone (DIZ) for every molecule in the list below?
1. O=C1C(Sc2c(Cl)c(Cl)c(Cl)c(Cl)c2Cl)=C(N2CCCC2)C(=O)c2ccccc21
2. COC(=O)CCSC1=C(Sc2c(Cl)c(Cl)c(Cl)c(Cl)c2Cl)C(=O)c2ccccc2C1=O

## Result
0
0

---

System: Aspergillus niger
Test: Antifungal activity against Aspergillus niger F-1119 after 24 to 72 hrs by serial dilution technique
Type: functional
The source made the active and inactive calls. No cut-off for these calls is given here.
MEASURED_METRIC: MIC

[[record]]
compound = "O=C1C(Cl)=C(N2CCN(CCO)CC2)C(=O)c2ccccc21"
measured_metric = "MIC"
data_value = "125 µg/mL"

[[record]]
compound = "O=C1C(Sc2c(Cl)c(Cl)c(Cl)c(Cl)c2Cl)=C(N2CCN(c3ccc(F)cc3)CC2)C(=O)c2ccccc21"
measured_metric = "MIC"
data_value = "inactive"

[[record]]
compound = "O=C1C(Sc2c(Cl)c(Cl)c(Cl)c(Cl)c2Cl)=C(N2CCCCC2)C(=O)c2ccccc21"
measured_metric = "MIC"
data_value = "inactive"

[[record]]
compound = "O=C1C(Sc2cc(Cl)ccc2Cl)=C(Sc2cc(Cl)ccc2Cl)C(=O)c2ccccc21"
measured_metric = "MIC"
data_value = "inactive"

[[record]]
compound = "O=C1C(Sc2c(Cl)c(Cl)c(Cl)c(Cl)c2Cl)=C(N2CCCC2)C(=O)c2ccccc21"
measured_metric = "MIC"
data_value = "inactive"

[[record]]
compound = "COC(=O)CCSC1=C(Sc2c(Cl)c(Cl)c(Cl)c(Cl)c2Cl)C(=O)c2ccccc2C1=O"
measured_metric = "MIC"
data_value = "inactive"

[[record]]
compound = "O=C1C(Sc2c(Cl)c(Cl)c(Cl)c(Cl)c2Cl)=C(N2CCSCC2)C(=O)c2ccccc21"
measured_metric = "MIC"
data_value = "inactive"

[[record]]
compound = "CCCCOC(=O)CCSC1=C(Sc2ccc(O)cc2)C(=O)c2ccccc2C1=O"
measured_metric = "MIC"
data_value = "inactive"

[[record]]
compound = "CCCCOC(=O)CCSC1=C(N2CCC3(CC2)OCCO3)C(=O)c2ccccc2C1=O"
measured_metric = "MIC"
data_value = "62.5 µg/mL"

[[record]]
compound = "CCCCOC(=O)CCSC1=C(Sc2c(Cl)c(Cl)c(Cl)c(Cl)c2Cl)C(=O)c2ccccc2C1=O"
measured_metric = "MIC"
data_value = "inactive"


Please state, for each entry, its recorded MIC.
1. CC1CCC(C(C)(C)SC2=C(SC(C)(C)C3CCC(C)CC3=O)C(=O)c3ccccc3C2=O)C(=O)C1 (stereo not drawn)
2. COC(=O)CCSC1=C(N2CCC3(CC2)OCCO3)C(=O)c2ccccc2C1=O
3. O=C1C(Sc2c(Cl)c(Cl)c(Cl)c(Cl)c2Cl)=C(N2CCOCC2)C(=O)c2ccccc21
4. COc1ccc(CSC2=C(SCc3ccc(OC)cc3)C(=O)c3ccccc3C2=O)cc1

## Result
["500 µg/mL", "500 µg/mL", "inactive", "250 µg/mL"]

The origin of these recorded values is ChEMBL document CHEMBL2424637.
